tested on: HCC-2998 colon; assay: NCI tumour cell line growth inhibition, 48 h
resultType: GI50

// lookup GI50 for CN(C)CCCNc1nccc(-c2c(-c3ccc(F)cc3)nn3cc(C(F)(F)F)ccc23)n1 4.54 µM

// lookup GI50 for CCN(CC)CCCC(Nc1c2ccc(Cl)cc2nc2ccc(OC)cc12)c1ccc(F)cc1 (stereo not drawn) 1.74 µM

// lookup GI50 for CN(C)CCN=Cc1c2ccccc2c(=O)n2c1oc1ccccc12 12.2 µM

// lookup GI50 for C=C(C)[C@@H]1CCC2=C[C@@H](OC2=O)[C@@H](C(=C)C)C(=O)/C=C(/C)C(=O)C1 26.2 µM

// lookup GI50 for C#CCNC(=O)CC[C@]1(C)[C@H]2CC[C@@H]3[C@@H]([C@@](C)(O)CCC=C(C)C)CC[C@@]3(C)[C@]2(C)CC[C@H]1C(=C)C 45.8 µM

// lookup GI50 for O=C1C(Cl)=C(Nc2cccc(O)c2)C(=O)N1c1ccc(Cl)c(Cl)c1 15 µM

// lookup GI50 for N#Cc1cccc(NC(=O)c2oc3ccccc3c2-c2cnn(-c3ccccc3)c2)c1 > 500 µM

// lookup GI50 for CNC(C)C(=O)N[C@H](C(=O)N1CCC[C@@H]1CN(CCc1ccccc1)C(=O)C(F)(F)F)[C@H](C)OCC#CC#CCO[C@H](C)[C@H](NC(=O)[C@H](C)NC)C(=O)N1CCC[C@H]1CN(CCc1ccccc1)C(=O)C(F)(F)F (stereo partly drawn) 1.45 µM

* * *

tested on: NCI-H460 lung; assay: NCI tumour cell line growth inhibition, 48 h
Provide the reported TGI of each item.

// lookup TGI for COC(=NCCC1=CCCCC1)OC > 100 µM

// lookup TGI for Oc1cc(O)c2c(=S)cc(-c3ccc(Cl)cc3)oc2c1 13.3 µM

// lookup TGI for CCC[CH2][Sn]([CH2]CCC)([O]C(=O)c1nccnc1N)[O]C(=O)c1nccnc1N 3.33 µM

// lookup TGI for CCCN(CCCCN1C(=O)c2ccccc2C1=O)CC1COc2ccccc2O1 (stereo unspecified) > 100 µM

// lookup TGI for [N-]=[N+]=Nc1c([N+](=O)[O-])c(Cl)nc2ccccc12 33.2 µM

// lookup TGI for COc1c2c(cc3c(CCc4ccccc4)cc(=O)oc13)CCC(C)(C)O2 > 100 µM

// lookup TGI for Cc1c(C(=O)O)c2cc3ccccc3cc2c(=O)n1C > 10 µM

// lookup TGI for COc1ccc(-c2cc(/C=C3\C(=O)Nc4ccc(OC)cc43)[nH]n2)cc1 > 100 µM

// lookup TGI for N#Cc1c(-c2ccccc2)cc(-c2ccccc2)n(CCCCC(=O)NO)c1=O 15.2 µM

// lookup TGI for CN(C)c1ccc(/C=C(\NC(=O)c2ccccc2)C(=O)Nc2ccccc2C(=O)O)cc1 > 100 µM

// lookup TGI for Clc1ccc(OC2CCO2)cc1Cl (stereo unspecified) > 100 µM

* * *

tested on: HOP-62 NSCLC; assay: NCI tumour cell line growth inhibition, 48 h
resultType: TGI

// lookup TGI for COC(=O)/C=C1/N=C(N(C)/N=C/c2ccccc2)NC1=O > 100 µM

// lookup TGI for Cc1c(CCCl)c(N=[N+]=[N-])n2c(nc3ccccc32)c1C#N 5.01 µM

// lookup TGI for C=C(C)[C@@H]1CCC2=C[C@@H](OC2=O)[C@@H](C(=C)C)C(=O)/C=C(/C)C(=O)C1 > 100 µM

// lookup TGI for C/C(=N/NC(=O)C(N)=O)C(CC(C(=O)Nc1ccccc1C)/C(C)=N\NC(=O)C(N)=O)C(=O)Nc1ccccc1C (stereo unspecified) > 100 µM

// lookup TGI for N#CC1CCN2N=C(c3ccccc3)SC12c1ccccc1 (stereo unspecified) > 100 µM

// lookup TGI for Cc1cccc2c(N)c3cccc(C(=O)NCCN(C)C)c3nc12 0.459 µM

// lookup TGI for CC(=O)NCCc1c[nH]c2ccc(Cl)cc12 > 100 µM

// lookup TGI for COc1cc([C@@H]2c3cc4c(cc3[C@@H](O[C@@H]3O[C@@H]5CO[C@@H](c6cccs6)O[C@H]5[C@H](O)[C@H]3O)[C@H]3COC(=O)[C@H]23)OCO4)cc(OC)c1O 2.34 µM

// lookup TGI for CC(C)c1cccc(C(C)C)c1NC(=O)C(=O)C(C(=O)c1ccc2ccccc2c1)C1OC(=O)c2ccccc21 (stereo unspecified) > 100 µM

// lookup TGI for O=C(N/N=C1/C(=O)c2c3ccccc3cc3cccc1c23)c1cccc(Cl)c1 > 100 µM

// lookup TGI for CC(C)[Si](OC1=C(C(=O)N(C)c2ccccc2Cl)CCC1)(C(C)C)C(C)C 32.3 µM

// lookup TGI for CC1(C)C(=S)C(C)(C)C1=S > 100 µM

// lookup TGI for CC1=C([Se]CC(OC(=O)[C@@H](CO)NC(=O)OC(C)(C)C)C(=O)NC(C)(C)C)C(=O)c2ccccc2C1=O (stereo partly specified) 1.86 µM

// lookup TGI for COC(=NCCC1=CCCCC1)OC > 100 µM

// lookup TGI for CC(=O)[O-].CC(=O)[O-].[NH2-].[Pt+2].c1ccncc1 > 100 µM

// lookup TGI for CN(C)CCNC(=O)c1cccc2nc3cccc(F)c3nc12 8.55 µM

// lookup TGI for Cc1ccc(CS(=O)(=O)C/N=c2\sc3ccccc3nc2/C=C(\O)c2ccc(Cl)cc2)cc1 > 10 µM

// lookup TGI for COc1c2c(cc3c(CCc4ccccc4)cc(=O)oc13)CCC(C)(C)O2 > 100 µM

// lookup TGI for O=C(CCCc1ccccn1)c1ccccc1 > 100 µM

// lookup TGI for Cc1cc2c(cc1C)[n+](=O)c(C(=O)N1CCN(c3ccc([N+](=O)[O-])cc3)CC1)c(C)n2[O-] 29.4 µM

// lookup TGI for C=C(CS(=O)(=O)c1ccccc1)[P+](c1ccccc1)(c1ccccc1)c1ccccc1 90 µM

// lookup TGI for Cc1cc2c(cc1C)[n+](=O)c(N1CCN(c3ccc([N+](=O)[O-])cc3)CC1)c(C#N)n2[O-] 31.7 µM

// lookup TGI for CCOC(=O)C1=C(C)NC(=O)NC1c1coc2cc(C)cc(C)c2c1=O (stereo unspecified) > 100 µM

// lookup TGI for CN(C)c1ccc(/C=C(\NC(=O)c2ccccc2)C(=O)Nc2ccccc2C(=O)O)cc1 > 100 µM

// lookup TGI for O=c1c2cc(Br)cc(Br)c2[nH]c(=S)n1-c1ccccc1 > 100 µM

// lookup TGI for O=C(c1cccs1)c1c(C(F)(F)F)n([O-])c2ccc(F)cc2[n+]1=O 3.13 µM

// lookup TGI for c1ccc(-c2nn(-c3ccccc3)[n+](-c3cccc4ccccc34)n2)cc1 33.2 µM

// lookup TGI for CNc1ccc(-c2cc(=O)oc3ccc(Cl)cc23)cc1 > 100 µM

// lookup TGI for O=C1C2CCC(C2)C12CC1(c3ccccc3)C(=O)c3ccccc3N1O2 (stereo unspecified) > 100 µM

// lookup TGI for O=S1(=O)CS(=O)(=O)OCCCO1 > 100 µM

// lookup TGI for COc1ccc(-n2c(C)nc3ccc(NC4OCC(O)C(O)C4O)cc3c2=O)cc1 (stereo unspecified) > 100 µM

// lookup TGI for COc1cc2c3c(n(C)c(=O)c2cc1OC)-c1cc2c(cc1/C3=C\CCCBr)OCO2 17.1 µM

// lookup TGI for Oc1c(-c2ccccc2)sc2ccccc12 45.8 µM

// lookup TGI for COc1c(CNC(=O)CCl)cc2[nH]c(C)cc2c1CNC(=O)CCl 20.2 µM

// lookup TGI for C[C@H]1CC(=O)C2=CCCC3(SCCCS3)[C@@H]2[C@H]1CO > 100 µM

// lookup TGI for Nc1nc(NNc2ccc(Cl)c(Cl)c2)cc(=O)[nH]1 > 100 µM

// lookup TGI for CC(=O)OCC12C(OC(C)=O)C[C@@H](C)C3(CC(c4ccoc4)OC3=O)C1CCC(O)C21CO1 (stereo partly specified) > 100 µM

// lookup TGI for COC(=O)C1C2C=CC(C2)N1S(=O)(=O)c1ccccc1 (stereo unspecified) > 100 µM

// lookup TGI for [N-]=[N+]=Nc1c([N+](=O)[O-])c(Cl)nc2ccccc12 41.4 µM

// lookup TGI for O=C1CN2C(Cl)(Cl)C2(c2ccccc2)c2cc(Cl)ccc2N1CC(F)(F)F (stereo unspecified) 60.7 µM

// lookup TGI for CC(C)OP(=O)(OC(C)C)/C(=N/N)NNc1ccc([N+](=O)[O-])cc1 > 100 µM

These data points were gathered from PubChem BioAssay (NCI).
